# EXPERIMENTAL_TARGET: T1, recombinant human DLL4 (Cat# 1506-D4/CF, R&D Systems) (human, UniProt Q9NR61 27-529)
# T1 construct: Bought protein; also called hDLL4; rHuman DLL4
# METHOD_SUMMARY: ELISA, DLL4 coated, Fab 12.5 nM
Classify by measured ELISA absorbance at 450 nm: class 1 if it is equal to or exceeds 0.4 A450, class 0 if it is smaller.

*Q* Has Fab VH5-51_IGHD5-18*01>3_IGHJ4*01 G100K/G104T G24T/S28R/G35V & V3-4_IGLJ1*01 V91L/S96P S52P (Fab, V domains shown, Fab made in E. coli: VH on CH1 with His6 and Flag tags (Plasmid A), VL on lambda CL (Plasmid E); also called H: KT TRV & L: LP S52P) VH: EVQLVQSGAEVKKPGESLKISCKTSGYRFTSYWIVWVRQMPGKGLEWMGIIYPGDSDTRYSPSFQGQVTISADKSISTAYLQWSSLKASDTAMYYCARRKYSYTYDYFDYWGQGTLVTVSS VL: QTVVTQEPSFSVSPGGTVTLTCGLSSGSVSTSYYPSWYQQTPGQAPRTLIYPTNTRSSGVPDRFSGSILGNKAALTITGAQADDESDYYCLLYMGPGISYVFGTGTKVTVL a recorded ELISA absorbance at 450 nm greater than or equal to 0.4 A450?
*A* class 1

*Q* Has Fab VH5-51_IGHD5-18*01>3_IGHJ4*01 G100K/G104T S28R & V3-4_IGLJ1*01 (Fab, V domains shown, Fab made in E. coli: VH on CH1 with His6 and Flag tags (Plasmid A), VL on lambda CL (Plasmid E); also called H: KT S28R & L: wt) VH: EVQLVQSGAEVKKPGESLKISCKGSGYRFTSYWIGWVRQMPGKGLEWMGIIYPGDSDTRYSPSFQGQVTISADKSISTAYLQWSSLKASDTAMYYCARRKYSYTYDYFDYWGQGTLVTVSS VL: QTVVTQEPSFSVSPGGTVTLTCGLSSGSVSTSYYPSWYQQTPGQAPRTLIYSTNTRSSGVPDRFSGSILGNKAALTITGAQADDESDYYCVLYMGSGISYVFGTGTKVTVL a recorded ELISA absorbance at 450 nm greater than or equal to 0.4 A450?
*A* class 0

*Q* Has Fab VH5-51_IGHD5-18*01>3_IGHJ4*01 G100K/G104T G24T/S28R/G35V & V3-4_IGLJ1*01 (Fab, V domains shown, Fab made in E. coli: VH on CH1 with His6 and Flag tags (Plasmid A), VL on lambda CL (Plasmid E); also called H: KT TRV & L: wt) VH: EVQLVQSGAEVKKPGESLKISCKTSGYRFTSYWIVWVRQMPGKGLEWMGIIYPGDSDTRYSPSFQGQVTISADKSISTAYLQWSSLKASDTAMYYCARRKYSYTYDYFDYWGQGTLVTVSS VL: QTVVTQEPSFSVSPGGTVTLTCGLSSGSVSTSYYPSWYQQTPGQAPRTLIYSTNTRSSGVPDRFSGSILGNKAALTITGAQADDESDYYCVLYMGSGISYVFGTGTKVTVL a recorded ELISA absorbance at 450 nm greater than or equal to 0.4 A450?
*A* class 0

*Q* Has Fab VH5-51_IGHD5-18*01>3_IGHJ4*01 G100K/G104T G24T/S28R/G35V & V3-4_IGLJ1*01 V91L/S96P S52H (Fab, V domains shown, Fab made in E. coli: VH on CH1 with His6 and Flag tags (Plasmid A), VL on lambda CL (Plasmid E); also called H: KT TRV & L: LP S52H) VH: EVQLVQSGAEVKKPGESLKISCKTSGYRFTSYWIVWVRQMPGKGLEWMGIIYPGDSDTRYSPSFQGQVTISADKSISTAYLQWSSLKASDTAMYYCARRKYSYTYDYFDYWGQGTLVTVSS VL: QTVVTQEPSFSVSPGGTVTLTCGLSSGSVSTSYYPSWYQQTPGQAPRTLIYHTNTRSSGVPDRFSGSILGNKAALTITGAQADDESDYYCLLYMGPGISYVFGTGTKVTVL a recorded ELISA absorbance at 450 nm greater than or equal to 0.4 A450?
*A* class 1

*Q* Has Fab VH5-51_IGHD5-18*01>3_IGHJ4*01 G100K/G104T & V3-4_IGLJ1*01 (Fab, V domains shown, Fab made in E. coli: VH on CH1 with His6 and Flag tags (Plasmid A), VL on lambda CL (Plasmid E); also called H: KT & L: wt) VH: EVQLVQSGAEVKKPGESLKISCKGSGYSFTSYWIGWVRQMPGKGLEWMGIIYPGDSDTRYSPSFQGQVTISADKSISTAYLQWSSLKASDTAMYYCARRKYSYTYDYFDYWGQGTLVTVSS VL: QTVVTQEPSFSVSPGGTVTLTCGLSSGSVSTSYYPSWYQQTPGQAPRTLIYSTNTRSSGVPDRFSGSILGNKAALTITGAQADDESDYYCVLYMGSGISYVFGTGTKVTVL a recorded ELISA absorbance at 450 nm greater than or equal to 0.4 A450?
*A* class 0

*Q* Has Fab VH5-51_IGHD5-18*01>3_IGHJ4*01 G100K/G104T G24T/S28R/G35V & V3-4_IGLJ1*01 V91L/S96P S52N (Fab, V domains shown, Fab made in E. coli: VH on CH1 with His6 and Flag tags (Plasmid A), VL on lambda CL (Plasmid E); also called H: KT TRV & L: LP S52N) VH: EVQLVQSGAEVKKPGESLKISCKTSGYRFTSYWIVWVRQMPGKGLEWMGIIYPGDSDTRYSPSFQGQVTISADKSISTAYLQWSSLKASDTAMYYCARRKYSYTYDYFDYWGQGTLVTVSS VL: QTVVTQEPSFSVSPGGTVTLTCGLSSGSVSTSYYPSWYQQTPGQAPRTLIYNTNTRSSGVPDRFSGSILGNKAALTITGAQADDESDYYCLLYMGPGISYVFGTGTKVTVL a recorded ELISA absorbance at 450 nm greater than or equal to 0.4 A450?
*A* class 1

*Q* Has Fab VH5-51_IGHD5-18*01>3_IGHJ4*01 G100K/G104T G24T/S28R/G35V & V3-4_IGLJ1*01 V91L/S96P S52L (Fab, V domains shown, Fab made in E. coli: VH on CH1 with His6 and Flag tags (Plasmid A), VL on lambda CL (Plasmid E); also called H: KT TRV & L: LP S52L) VH: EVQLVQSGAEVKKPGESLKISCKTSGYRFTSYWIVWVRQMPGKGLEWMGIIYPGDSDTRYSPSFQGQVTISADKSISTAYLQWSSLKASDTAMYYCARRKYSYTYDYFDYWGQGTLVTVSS VL: QTVVTQEPSFSVSPGGTVTLTCGLSSGSVSTSYYPSWYQQTPGQAPRTLIYLTNTRSSGVPDRFSGSILGNKAALTITGAQADDESDYYCLLYMGPGISYVFGTGTKVTVL a recorded ELISA absorbance at 450 nm greater than or equal to 0.4 A450?
*A* class 1

*Q* Has Fab VH5-51_IGHD5-18*01>3_IGHJ4*01 G100K/G104T G24T/S28R/G35V & V3-4_IGLJ1*01 V91L/S96P S52Q (Fab, V domains shown, Fab made in E. coli: VH on CH1 with His6 and Flag tags (Plasmid A), VL on lambda CL (Plasmid E); also called H: KT TRV & L: LP S52Q) VH: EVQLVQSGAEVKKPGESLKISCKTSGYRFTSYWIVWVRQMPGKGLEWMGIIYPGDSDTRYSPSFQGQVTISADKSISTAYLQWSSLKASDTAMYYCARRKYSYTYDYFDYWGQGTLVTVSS VL: QTVVTQEPSFSVSPGGTVTLTCGLSSGSVSTSYYPSWYQQTPGQAPRTLIYQTNTRSSGVPDRFSGSILGNKAALTITGAQADDESDYYCLLYMGPGISYVFGTGTKVTVL a recorded ELISA absorbance at 450 nm greater than or equal to 0.4 A450?
*A* class 1

*Q* Has Fab VH5-51_IGHD5-18*01>3_IGHJ4*01 G100K/G104T G24T/S28R/G35V & V3-4_IGLJ1*01 V91L/S96P S52G (Fab, V domains shown, Fab made in E. coli: VH on CH1 with His6 and Flag tags (Plasmid A), VL on lambda CL (Plasmid E); also called H: KT TRV & L: LP S52G) VH: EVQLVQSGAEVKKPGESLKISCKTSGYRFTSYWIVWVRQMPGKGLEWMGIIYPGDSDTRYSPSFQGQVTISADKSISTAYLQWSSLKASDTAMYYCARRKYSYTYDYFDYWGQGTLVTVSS VL: QTVVTQEPSFSVSPGGTVTLTCGLSSGSVSTSYYPSWYQQTPGQAPRTLIYGTNTRSSGVPDRFSGSILGNKAALTITGAQADDESDYYCLLYMGPGISYVFGTGTKVTVL a recorded ELISA absorbance at 450 nm greater than or equal to 0.4 A450?
*A* class 1

*Q* Has Fab VH5-51_IGHD5-18*01>3_IGHJ4*01 G100K/G104T G24T/S28R/G35V & V3-4_IGLJ1*01 V91L/S96P (Fab, V domains shown, Fab made in E. coli: VH on CH1 with His6 and Flag tags (Plasmid A), VL on lambda CL (Plasmid E); also called H: KT TRV & L: LP) VH: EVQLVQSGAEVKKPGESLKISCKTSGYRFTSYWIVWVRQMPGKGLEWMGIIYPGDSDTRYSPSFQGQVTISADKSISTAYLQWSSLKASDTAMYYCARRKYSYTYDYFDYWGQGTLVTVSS VL: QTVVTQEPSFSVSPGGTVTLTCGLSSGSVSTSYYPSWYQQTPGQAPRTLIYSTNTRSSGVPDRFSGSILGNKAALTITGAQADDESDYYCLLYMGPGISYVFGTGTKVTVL a recorded ELISA absorbance at 450 nm greater than or equal to 0.4 A450?
*A* class 1

Ref: patent US20110318339A1
